Reference for the values: patent US20150166606A1

# experimental.target: Factor Xa (Enzyme Research Laboratories) (human, UniProt P00742 41-488, limits assumed)
# Sequence (P00742 41-488 limits assumed): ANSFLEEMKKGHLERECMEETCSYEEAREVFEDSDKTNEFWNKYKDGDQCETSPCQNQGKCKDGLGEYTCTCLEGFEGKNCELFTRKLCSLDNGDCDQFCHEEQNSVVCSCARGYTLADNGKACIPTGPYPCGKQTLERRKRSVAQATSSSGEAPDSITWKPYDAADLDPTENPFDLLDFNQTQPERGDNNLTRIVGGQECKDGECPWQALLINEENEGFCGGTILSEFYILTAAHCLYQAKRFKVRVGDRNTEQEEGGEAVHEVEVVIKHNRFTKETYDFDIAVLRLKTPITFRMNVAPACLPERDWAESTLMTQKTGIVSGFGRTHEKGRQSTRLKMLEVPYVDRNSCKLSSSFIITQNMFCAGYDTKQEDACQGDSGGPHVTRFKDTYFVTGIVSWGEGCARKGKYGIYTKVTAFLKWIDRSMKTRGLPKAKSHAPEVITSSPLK
# run.description: cell-based or functional assay
Bridge positions count the residues as written; N and C are the ends. Square brackets hold non-standard residues; d marks the D form. Ends that are not written are not given here. * marks the point of attachment. mXylyl = xylyl linker from dibromoxylene joining the two cysteines; des‑NH2 = missing amino-terminal amine group; Phg = N[C@H](C(=O)O)c1ccccc1; Tle = CC(C)(C)[C@H](N)C(=O)O; Heptanoyl = CCCCCCC(=O)*; Nva = CCC[C@H](N)C(=O)O
Entries annotated with measured Factor Xa IC50

# count of solved cases: 5
[Nva]CEP[Phg]CR[Tle]-NH2 (linker 2-6 via mXylyl) [R2030] | > 100 µM
Ac-CAS[Phg]CR[Tle]-NH2 (linker 1-5 via mXylyl) [R2036] | > 7 µM
MCESICR[Tle]-NH2 (linker 2-6 via mXylyl) [R2010] | > 100 µM
Heptanoyl-CESICRV-NH2 (linker 1-5 via mXylyl) [R2041] | > 7 µM
MCESICRV-NH2 (linker 2-6 via mXylyl) [R2006] | > 7 µM

Now for another entry.
Query: Answer with the recorded Factor Xa IC50 for the binder listed here: {des‑NH2}-CESICRV-NH2 (linker 1-5 via mXylyl; not fully specified (residue 1); printed as [mXylyl(1,5)](des-NH2)C-ESICRV-NH2) [R2051]
Response: > 100 µM
